test system: HL-60(TB) leukemia; assay: NCI-60 one-dose screen, 48 h (100 = growth as untreated, 0 = no growth, -100 = all killed); conditions: 10 µM unless noted
This is part of a sample that, as a whole, favours compounds with a hit. Of some 83,000 tested, about 20% had one in any assay.
REPORTED_METRIC: growth (%)
One number for each entry, in %.

Known growth results, listed for orientation:
1. COC(=O)[C@@H](C)C[C@H](Cc1ccccc1)NC(=O)c1nc([C@@H](C[C@H](C(C)C)N(C)C(=O)[C@@H](NC(=O)[C@H]2C[C@H](O)CCN2C)C(C)C)OC(C)=O)sc1C(C)C : -42.3
2. COc1ccc(C2=N[C@@H](Cc3ccccc3)C(=O)Nc3ccsc32)cc1 : 8.11
3. Nc1cc2nc3ccccc3nc2cc1N : 87.5
4. CCOP1(=O)CC(C)=C(Cl)C(P(=O)(OCC)OCC)C1 (configuration not stated) : 107
5. CCc1ccccc1[C@@H]1C[C@]2(C)CCO[C@@H]2OO1 : 109
6. C=CCn1cc(C=C2C(=O)N(C)C(=O)N(C)C2=O)c2ccccc21 : 121
7. CC1=C(CCCNS(C)(=O)=O)C2=C(C)C3(CC3)[C@@](C)(O)C(=O)C2=C1 : 14
8. CCOC(=O)[C@@H](C)C[C@H](Cc1ccccc1)NC(=O)c1csc([C@@H](C[C@H](C(C)C)N(C)C(=O)[C@@H](NC(=O)[C@H]2CCCCN2C)C(C)(C)C)OC(C)=O)n1 : -33.2
9. COC(=O)[C@H](Cc1ccccc1)NC(=O)c1csc([C@@H](C[C@H](C(C)C)N(C)C(=O)[C@@H](NC(=O)[C@H]2CCCN2C)C2CC2)OC(C)=O)n1 : -44.9
10. C[C@@H]1CCC2[C@@H](C)[C@H](OC(=O)CCC(=O)NCCNC(=O)Cc3cc(=O)oc4cc(N(C)C)ccc34)O[C@@H]3O[C@]4(C)CC[C@@H]1C23OO4 (some centres not stated) : -38.8

Kindly give each listed record's growth.
1. COc1cc2c(cc1OCCCCn1c(-c3cccs3)nc3ccccc31)N=C[C@@H]1CCCN1C2=O
2. CCCC[C@H](NC(=O)[C@H]1CCCCN1C)C(=O)N(C)[C@H](C[C@@H](OC(C)=O)c1nc(C(=O)N[C@@H](Cc2ccccc2)C[C@H](C)C(=O)OCC)cs1)C(C)C
3. CCOC(=O)CCN(C)C1=Nc2ccc(Cl)cc2C(c2ccccc2)=[N+]([O-])C1
4. CC1=C(O)[C@@](C)(CCCCC[C@H](C)CCCCc2ccc(O)cc2)OOC1=O

Result:
-18.7
-25.7
91.3
84.4

Record growth for all entries; do not skip any.
1. Cc1c2cc(Cl)c3ccccc3c2c[n+]2ccccc12
2. COC(=O)[C@H](Cc1ccccc1)NNC(=O)c1csc([C@@H](C[C@H](C(C)C)N(C)C(=O)[C@@H](NC(=O)[C@H]2CCCCN2C)C2CC2)OC(C)=O)n1
3. COc1ccc(NC([Se])=NC23CC4CC(CC(C4)C2)C3)cc1
4. Cc1ccc(S(=O)(=O)C(Cl)(Cl)Cl)cc1
5. CC(=O)/C=C/c1ccc2c(c1)OCO2
6. Fc1ccc2c(c1)c(-c1nc(-c3c[nH]c4ncccc34)cs1)cn2CCN1CCOCC1
7. COC(=O)[C@@H](C)C[C@H](Cc1ccccc1)NC(=O)c1cccc([C@@H](C[C@H](C(C)C)N(C)C(=O)[C@@H](NC(=O)[C@H]2CCCCN2C)C(C)C)OC(C)=O)n1

Result:
1: 62.3; 2: -55.4; 3: -11.8; 4: 91.1; 5: 104; 6: 48.1; 7: -28.6

# batch size: 3; output growth per entry
1. C/C(CC(C)(C)N1CC1)=N\NC(=O)Nc1cccc2ccccc12
2. CC(C)CCC1(CCCl)C(=O)NC(=O)NC1=O
3. c1cnc2[nH]cc(-c3csc(-c4cn(CCCCN5CCCCC5)c5ccccc45)n3)c2c1

Result:
77.6
108
47.9
